B1: HDV Ribozyme (parent)
chain: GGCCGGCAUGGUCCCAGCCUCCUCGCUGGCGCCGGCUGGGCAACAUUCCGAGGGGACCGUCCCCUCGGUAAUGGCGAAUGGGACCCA

variants of: B1; test: self-cleavage, relative activity (ratio to wild type); higher = more cleavage; co-transcriptional
In this section we review reported self-cleavage values for a set of variants.
experimental-readout: self-cleavage

mutant-id: G28C A45U
experimental-readout: self-cleavage
result: 0.142
--
mutant-id: C4U G59U
experimental-readout: self-cleavage
result: 0.973
--
mutant-id: C32U A56G
experimental-readout: self-cleavage
result: 0.872
--
mutant-id: C41U G54A
experimental-readout: self-cleavage
result: 0.958
--
mutant-id: G39U G80C
experimental-readout: self-cleavage
result: 0.181
